Biological target: MDM2 D. rerio (SWIB domain) (Danio rerio)
Construct: N-terminal fusion: NusA-TEV-His6-PreScission (pSY10) or His6-GST-PreScission (pETM33); made in house; host or cells: Escherichia coli BL21 (DE3) pLys or BL21 (DE3)
Assay: Stopped-flow binding kinetics (kon, koff; KD = koff/kon)
Ends that are not written are not given here.
ENDPOINT: Kd (nM)
Return type: number; implicit unit nM.

Item: Ac-EGPTFEHLWSTL [p73TAD D. rerio] | Kd: 120

----------
Molecular target: MDM2 H. sapiens (SWIB domain) (Homo sapiens, UniProt Q00987)
Construct: The reconstructed MDM2 variants used in the present study correspond to residues 17–125 of human MDM2; N-terminal fusion: NusA-TEV-His6-PreScission (pSY10) or His6-GST-PreScission (pETM33); made in house; host or cells: Escherichia coli BL21 (DE3) pLys or BL21 (DE3)
Sequence (Q00987 17-125): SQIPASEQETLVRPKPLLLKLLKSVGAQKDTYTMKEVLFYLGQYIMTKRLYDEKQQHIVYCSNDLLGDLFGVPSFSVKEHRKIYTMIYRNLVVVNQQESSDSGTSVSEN
Test: Stopped-flow binding kinetics (kon, koff; KD = koff/kon)
Details: MDM2 H. sapiens, pre-formed complex 1 μM:1 μM displaced by 10–20 μM dansylated human p53TAD, 10°C, pH 7.4, SD of two or three replicates
Ends that are not written are not given here.
ENDPOINT: log10 koff (log10 of the value in s⁻¹)
Hey, these are logged values: log10 of koff, s⁻¹ being the unit before logging.

Illustrative cases are given below, each with its answer.
Per the records, this substance ( Ac-SQETFNHLWNTL [p53TADBilateria ^ML] ) has log10 koff equal to 1.04

Entry Ac-SQETFNHLWNML [p53TAD1R ^ML] ; log10 koff = 0.14

Documented log10 koff of Ac-SQETFSDLWNML [p53TADReptiles/Mammals ^AltAll] : -0.44

Just so you know, measured log10 koff for Ac-SQDTFSDLWNQL [p53TAD1R ^AltAll] came out at -0.15

Note to self: log10 koff recorded for Ac-SQETFDFLWKSL [p53TADBilateria ^AltAll] was 0.41

The recorded log10 koff for entry Ac-SQETFSDLWNLL [p53TADReptiles/Mammals ^ML] equals -0.49

Please examine the following record next.
// log10 koff value for Ac-SQESFSDLWNLL [p53TADFishes/Tetrapods ^AltAll] : -0.28

----------
Molecular target: MDM2 D. rerio (SWIB domain) (Danio rerio, UniProt O42354)
Construct: N-terminal fusion: NusA-TEV-His6-PreScission (pSY10) or His6-GST-PreScission (pETM33); made in house; host or cells: Escherichia coli BL21 (DE3) pLys or BL21 (DE3)
Sequence (O42354 19-102 limits assumed): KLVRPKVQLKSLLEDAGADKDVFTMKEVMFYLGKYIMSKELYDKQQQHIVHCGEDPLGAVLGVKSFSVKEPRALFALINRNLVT
Experiment: Fluorescence polarization displacement of FITC-labeled human p53TAD 15–26 (IC50 to KD/Ki)
Assay type: binding
Conditions: FP displacement; low constant FITC-labeled p53TADHuman and MDM2 D. rerio, displaced by excess peptide; room temperature, pH 7.4; KD calculated from IC50; mean ± SEM
Ends that are not written are not given here.
ENDPOINT: Kd
Field note: include the unit after the figure.

The recorded Kd for entry Ac-GQDVLNQLLEML [p63TAD D. rerio] equals 130 µM

----------
Molecular target: MDM2 H. sapiens (SWIB domain) (Homo sapiens, UniProt Q00987)
Construct: The reconstructed MDM2 variants used in the present study correspond to residues 17–125 of human MDM2; N-terminal fusion: NusA-TEV-His6-PreScission (pSY10) or His6-GST-PreScission (pETM33); made in house; host or cells: Escherichia coli BL21 (DE3) pLys or BL21 (DE3)
Assay: Stopped-flow binding kinetics (kon, koff; KD = koff/kon)
Conditions: pH 7.4, MDM2 H. sapiens 0.5–2 μM mixed with 1–10 μM p53TAD, kobs vs concentration, 10°C, pH 7.4, curve fitting error
Ends that are not written are not given here.
ENDPOINT: kon (M⁻¹ s⁻¹)
Answer in M⁻¹ s⁻¹, number only, no unit symbol.

Reported kon of Ac-SQESFSDLWNLL [p53TADFishes/Tetrapods ^AltAll] : 2.73e+07

kon in this record for Ac-SQETFNHLWNTL [p53TADBilateria ^ML] : 1.9e+07

Record summary for Ac-SQDTFSDLWNQL [p53TAD1R ^AltAll] : reported kon = 2.9e+07

Noted for Ac-SQETFSDLWNML [p53TADReptiles/Mammals ^AltAll] : its kon reads 3.8e+07

// kon value for Ac-SQETFSDLWNLL [p53TADReptiles/Mammals ^ML] : 4.2e+07

---
Briefly, kon measured for Ac-SQETFNHLWNML [p53TAD1R ^ML] : 1.67e+07

Data point: Ac-SQETFDFLWKSL [p53TADBilateria ^AltAll] ; kon = 1.5e+07
